system: EKVX NSCLC; experiment: NCI-60 one-dose screen, 48 h (100 = growth as untreated, 0 = no growth, -100 = all killed); conditions: 10 µM unless noted
Compounds without any hit were thinned out: in the full panel of roughly 83,000, 20% have a hit.

{"Compound": "CCN(CC)c1ccc(/C=C2\\Oc3ccc(O)c(I)c3C2=O)cc1", "growth [%]": 73.3}
{"Compound": "C=C1CCC2C3(C)COC(c4ccccc4)OC3CCC2(C)C1/C=C/C1=CCOC1=O (configuration not stated)", "growth [%]": 96.1}
{"Compound": "NC(N)=Nc1nc2ccccc2o1", "growth [%]": 109}
{"Compound": "COc1cc([N+](=O)[O-])c2ncccc2c1O", "growth [%]": 105}
{"Compound": "CCCCN(CCCC)C(=N)c1ccnc2ccccc12", "growth [%]": 104}
{"Compound": "CC(C)(C)n1cc(-c2ccnc(NCCCNS(=O)(=O)c3ccc(F)cc3)c2)c(-c2cccc(O)c2)n1", "growth [%]": 49.8}
{"Compound": "C=C1CCC2C3(C)COC(c4ccc(N(C)C)cc4)OC3CCC2(C)C1C/C=C1/C(=O)OCC1O (configuration not stated)", "growth [%]": 85.7}
{"Compound": "O=C(NS(=O)(=O)c1ccc2ccccc2c1)n1cc(-c2ccncc2)c(-c2ccc(Cl)c(O)c2)n1", "growth [%]": 65.5}
{"Compound": "COC(=O)c1cccc2c1N(C)c1c(cccc1C(=O)OC)CC2", "growth [%]": 112}
{"Compound": "Nc1ncnc2c1c(-c1ccc(Oc3ccccc3)cc1)nn2C[C@@H]1SSC[C@@H]1O", "growth [%]": 25.2}
{"Compound": "O=Nc1c(-c2cccc([N+](=O)[O-])c2)nc2ncccn12", "growth [%]": 108}
{"Compound": "C=C1CCC2C(C)(CO)C(O)CCC2(C)C1C/C=C1/C(=O)OCC1Oc1ccccc1C (configuration not stated)", "growth [%]": 101}
{"Compound": "O=[N+]([O-])c1cc(S(=O)(=O)Oc2ccccc2)ccc1Cl", "growth [%]": 65}
{"Compound": "Cc1ccc2[nH]c(=O)c3c(c2c1)Oc1ncn2nc(-c4ccco4)nc2c1C3c1ccc(Cl)cc1 (configuration not stated)", "growth [%]": 90.9}
{"Compound": "O=[N+]([O-])c1ccc(-c2cn(-c3ccccc3)c(-c3ccccc3)n2)cc1", "growth [%]": 88.7}
{"Compound": "O=[N+]([O-])c1ccc(OCCCOc2ccccc2)cc1", "growth [%]": 96.8}
{"Compound": "Cc1ccc2nc(Cl)cc(=O)n2c1", "growth [%]": 114}
{"Compound": "C[n+]1c(/C=C/c2c(O)ccc3ccccc23)ccc2ccccc21", "growth [%]": 44.8}
{"Compound": "COc1cc(-c2nn(C(=O)NS(=O)(=O)c3ccccc3)cc2-c2ccncc2)ccc1Cl", "growth [%]": 56.1}
{"Compound": "COc1ccc(Nc2[nH]n3c(=O)cc(C)nc3c2C(N)=O)c(OC)c1", "growth [%]": 101}
{"Compound": "COc1ccc(C2=C(c3cc(OC)c(OC)c(OC)c3)C(=O)CC2)cc1", "growth [%]": 40}
{"Compound": "Nc1nc(-c2ccccc2)c(CCCOc2ccc(NC(=O)CBr)cc2)c(=O)[nH]1", "growth [%]": 117}
